# measuredTarget: T1, Mouse Fc-human GDF15 (Mu IgG1Fc_Fxa_Hu GDF15) (human)
# T1 construct: Whole entry is the fusion: mouse IgG1 Fc, FXa site and linker, mature human GDF15; described as dimeric; also called Murine dimeric IgG1 Fc-human GDF-15 with FXa cleavage site; control human GDF15
# T1 chain: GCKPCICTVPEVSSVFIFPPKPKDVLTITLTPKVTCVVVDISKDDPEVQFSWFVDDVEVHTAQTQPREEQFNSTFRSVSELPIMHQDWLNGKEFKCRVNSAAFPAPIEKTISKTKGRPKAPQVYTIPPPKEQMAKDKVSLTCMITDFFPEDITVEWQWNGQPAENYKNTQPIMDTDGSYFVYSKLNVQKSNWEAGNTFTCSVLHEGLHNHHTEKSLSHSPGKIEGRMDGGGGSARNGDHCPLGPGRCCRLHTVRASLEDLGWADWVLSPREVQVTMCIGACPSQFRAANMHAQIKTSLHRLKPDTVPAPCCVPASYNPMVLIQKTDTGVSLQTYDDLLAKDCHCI
# experiment: SPR BIAcore T200, 37C; Fc-GDF15 captured, IgG as analyte; average of runs
Readings of Kd for the listed binders
Numeric only. Scale: pM

Example results:
[
  {
    "binder": "GDF15_017 (antibody, human IgG1, kappa, V domains shown, Tested in bivalent format) VH: QVQLVQSGAEVKKPGSSVKVSCKASGYTFTDYNIDWVRQAPGQGLEWMGQINPNNGLAFYNQKFQGRVTITADESTSTAYMELSSLRSEDNAVYYCAREAITTVGAMDYWGQGTLVTVSS VL: EIVLTQSPATLSLSPGERATLSCRTSQSVHSYLAWYQQKPGQAPRLLIYDAKTRATGIPARFSGSGSGTDFTLTISSLEPEDFAVYYCQQFSSDPYTFGQGTKVEIKR",
    "Kd, pM": 34.9
  },
  {
    "binder": "GDF15_013 (antibody, human IgG1, kappa, V domains shown, Tested in bivalent format) VH: QVQLVQSGAEVKKPGSSVKVSCKASGYTFSDYNMDWVRQAPGQGLEWMGGINPNNGLAFYNQKFQGRVTITADESTSTAYMELSSLRSEDTAVYYCAREAITTVGAMDYWGQGTLVTVSS VL: EIVLTQSPATLSLSPGERATLSCRTSESVHSYLAWYQQKPGQAPRLLIYDASNRATGIPARFSGSGSGTDFTLTISSLEPEDFAVYYCQQFWNWPWTFGQGTKVEIKR",
    "Kd, pM": 18
  }
]

Let us examine a further case.
Prompt: Name the reported Kd value associated with the binder GDF15_020 (antibody, human IgG1, kappa, V domains shown, Tested in bivalent format) VH: QVQLVQSGAEVKKPGSSVKVSCKASGYTFSDYNMDWVRQAPGQGLEWMGQINPNNGLANYNQKFQGRVTITADESTSTAYMELSSLRSEDTAVYYCAREAITTVGAMDYWGQGTLVTVSS VL: EIVLTQSPATLSLSPGERATLSCRASQNLHSYLAWYQQKPGQAPRLLIYDASTRADGIPARFSGSGSGTDFTLTISSLEPEDFAVYYCQQFWSDPYTFGQGTKVEIKR
Response: 131

Value source: patent US20260159579A1
